In this section, each of the compounds is paired with its reported mean geometric MIC, Vancomycin Sensitive Strains.
test system: vancomycin-susceptible enterococci; assay: broth micro-dilution, mean geometric MIC; type: cell-based, Enterococcus faecium and Enterococcus faecalis; conditions: enterococci, 24-hour incubation
Output spec: scalar in µg/mL, unitless text.

Look over these answered cases.
[
  {
    "compound": "CNC(CC(C)C)C(=O)NC1C(=O)NC(CC(N)=O)C(=O)NC2C(=O)NC3C(=O)NC(C(=O)NC(C(=O)O)c4cc(O)cc(O)c4-c4cc3ccc4O)C(OC3CC(C)(N)C(O)C(C)O3)c3ccc(c(Cl)c3)Oc3cc2cc(c3OC2OC(CO)C(O)C(O)C2OC2CC(C)(NCCCCCCCCOc3ccc(-c4ccccc4)cc3)C(O)C(C)O2)Oc2ccc(cc2Cl)C1O (stereo not drawn) [Compound 201]",
    "units of measure": "µg/mL",
    "observed": 0.44
  },
  {
    "compound": "CNC(CC(C)C)C(=O)NC1C(=O)NC(CC(N)=O)C(=O)NC2C(=O)NC3C(=O)NC(C(=O)NC(C(=O)O)c4cc(O)cc(O)c4-c4cc3ccc4O)C(OC3CC(C)(NCc4ccc(-c5ccc(Cl)cc5)cc4)C(O)C(C)O3)c3ccc(c(Cl)c3)Oc3cc2cc(c3OC2OC(CO)C(O)C(O)C2OC2CC(C)(NCc3ccc(-c4ccc(Cl)cc4)cc3)C(O)C(C)O2)Oc2ccc(cc2Cl)C1O.O=C(O)C(F)(F)F (stereo not drawn) [Compound 254]",
    "units of measure": "µg/mL",
    "observed": 0.5
  },
  {
    "compound": "CNC(CC(C)C)C(=O)NC1C(=O)NC(CC(N)=O)C(=O)NC2C(=O)NC3C(=O)NC(C(=O)NC(C(=O)O)c4cc(O)cc(O)c4-c4cc3ccc4O)C(OC3CC(C)(N)C(O)C(C)O3)c3ccc(c(Cl)c3)Oc3cc2cc(c3OC2OC(CO)C(O)C(O)C2OC2CC(C)(NCC3CCC(Cc4ccccc4)CC3)C(O)C(C)O2)Oc2ccc(cc2Cl)C1O (stereo not drawn) [Compound 241]",
    "units of measure": "µg/mL",
    "observed": 0.048
  }
]

Qu. Suppose we examine the compound CNC(CC(C)C)C(=O)NC1C(=O)NC(CC(N)=O)C(=O)NC2C(=O)NC3C(=O)NC(C(=O)NC(C(=O)O)c4cc(O)cc(O)c4-c4cc3ccc4O)C(OC3CC(C)(N)C(O)C(C)O3)c3ccc(c(Cl)c3)Oc3cc2cc(c3OC2OC(CO)C(O)C(O)C2OC2CC(C)(NCc3ccc(OC(C)=O)c(OC)c3)C(O)C(C)O2)Oc2ccc(cc2Cl)C1O (stereo not drawn) [Compound 99] ; what mean geometric MIC, Vancomycin Sensitive Strains value has been reported?
Ans. 0.76

Qu. Thanks! And CNC(CC(C)C)C(=O)NC1C(=O)NC(CC(N)=O)C(=O)NC2C(=O)NC3C(=O)NC(C(=O)NC(C(=O)O)c4cc(O)cc(O)c4-c4cc3ccc4O)C(OC3CC(C)(N)C(O)C(C)O3)c3ccc(c(Cl)c3)Oc3cc2cc(c3OC2OC(CO)C(O)C(O)C2OC2CC(C)(NCCCCCCCCCC#Cc3ccccc3)C(O)C(C)O2)Oc2ccc(cc2Cl)C1O (stereo not drawn) [Compound 236] ?
Ans. 0.5

Qu. CNC(CC(C)C)C(=O)NC1C(=O)NC(CC(N)=O)C(=O)NC2C(=O)NC3C(=O)NC(C(=O)NC(C(=O)O)c4cc(O)cc(O)c4-c4cc3ccc4O)C(OC3CC(C)(N)C(O)C(C)O3)c3ccc(c(Cl)c3)Oc3cc2cc(c3OC2OC(CO)C(O)C(O)C2OC2CC(C)(NCc3ccc(OCc4ccccc4)c(OCc4ccccc4)c3)C(O)C(C)O2)Oc2ccc(cc2Cl)C1O (stereo not drawn) [Compound 53] ?
Ans. 0.25
